# reported protein stability index; entries follow
B1: KLHDC10 (parent)
chain: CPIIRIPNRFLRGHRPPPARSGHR

- Variants of: B1
- Measurement protocol: protein stability index of a GFP-peptide fusion (GPS, HEK-293T) (PSI 1-6); higher = more stable;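 also: lentivirally expressed fusions sorted by FACS into six bins by GFP to DsRed ratio, PSI derived from sequencing read proportions per bin multiplied by bin number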
- Condition label: c terminus: a fixed tail appended
Please respond with just the number, no unit label.

>>> recorded_value("CPIVRIPNRFLRGHRPPPARSGHR [I4V]")
2.42
>>> recorded_value("CPIIRIPNRFLRGHDPPPARSGHR [R15D]")
2.11
>>> recorded_value("CPIIRIPNRFLRGHRKPPARSGHR [P16K]")
3.27
>>> recorded_value("HPIIRIPNRFLRGHRPPPARSGHR [C1H]")
2.91
>>> recorded_value("CPAIRIPNRFLRGHRPPPARSGHR [I3A]")
1.56
>>> recorded_value("CAIIRIPNRFLRGHRPPPARSGHR [P2A]")
3.75
>>> recorded_value("CPIIRIPNRFFRGHRPPPARSGHR [L11F]")
1.84
>>> recorded_value("CPIIRIPNRFLRGHRPPPQRSGHR [A19Q]")
1.48
>>> recorded_value("CPIIRIPNRFLRYHRPPPARSGHR [G13Y]")
1.88
>>> recorded_value("CPIIRIPNRFWRGHRPPPARSGHR [L11W]")
1.7

Entry CPIIRIPNCFLRGHRPPPARSGHR [R9C] ; protein stability index = 2.48

For reference, reported protein stability index for CPIIRIPNRFLRGHRPPPARSGHF [R24F] stands at 1.31

Measured protein stability index, CPIIRIPNRFLRGHSPPPARSGHR [R15S] : 1.69

The reported value for CPIIRIPNRFLRGHKPPPARSGHR [R15K] in terms of protein stability index is 2.19

Looking up CPIIRIPNRFLVGHRPPPARSGHR [R12V] , I see its protein stability index listed as 2.75
